Origin of values: patent US5459152A

- Assay Target: PAF receptor (Oryctolagus cuniculus, UniProt G1TEI7)
- Construct: platelet membranes where prepared by centrifugation and washing; tissue Pel-Freez (Rogers, AR) (whole rabbit blood); host or cells: rabbit platelet membranes
- Sequence (G1TEI7 1-342): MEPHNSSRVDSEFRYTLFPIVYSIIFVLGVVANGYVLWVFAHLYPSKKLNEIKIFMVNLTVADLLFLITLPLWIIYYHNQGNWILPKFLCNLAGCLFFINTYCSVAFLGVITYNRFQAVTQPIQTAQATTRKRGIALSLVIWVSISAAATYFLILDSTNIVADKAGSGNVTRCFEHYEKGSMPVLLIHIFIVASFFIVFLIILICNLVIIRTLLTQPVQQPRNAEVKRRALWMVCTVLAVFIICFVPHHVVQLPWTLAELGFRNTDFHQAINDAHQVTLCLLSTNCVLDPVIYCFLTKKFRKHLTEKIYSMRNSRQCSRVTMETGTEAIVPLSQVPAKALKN
- Measurement Notes: PAF receptor binding assay ([3H]C18-PAF, rabbit platelet membranes)
- Experimental Setup: read-out: PAF Receptor Binding Activity K1
Where a name gives a salt, the structure may show the parent alone.
Recorded Endpoint: pKi
# reply with the number alone; pKi is -log10 of concentration in mol/L

### Prompt Look at this molecule and give its reported pKi. O=C(c1ccn2c1CSC2c1cccnc1)c1c[nH]c2cc(-c3cccnc3)ccc12 (stereo not shown) [Example 41]
### Response 5.70

### Prompt Cool, now COC(=O)n1cc(C(=O)c2ccn3c2CSC3c2cccnc2)c2ccc(OCc3ccccc3)cc21 (stereo not shown) [Example 18]
### Response 7.46

### Prompt Cool, now CN(C)C(=O)n1cc(C(=NN)c2ccn3c2CSC3c2cccnc2)c2ccc(-c3ccc(F)cc3)cc21 (stereo not shown) [Example 104]
### Response 8.66

### Prompt Cool, now CN(C)C(=O)n1cc(C(=O)c2ccn3c2CSC3c2ccc[n+]([O-])c2)c2ccc(-c3ccccc3)cc21 (stereo not shown) [Example 54, hydrochloride]
### Response 7.77

----------
- Assay Target: PAF receptor (Oryctolagus cuniculus, UniProt G1TEI7)
- Construct: platelet membranes where prepared by centrifugation and washing; tissue Pel-Freez (Rogers, AR) (whole rabbit blood); host or cells: rabbit platelet membranes
- Measurement Notes: PAF receptor binding assay ([3H]C18-PAF, rabbit platelet membranes)
- Experimental Setup: read-out: PAF Receptor Binding Activity K1
Answer each item with its documented pKi.
# reply with the number alone; pKi is -log10 of concentration in mol/L

### Prompt Look at this compound and give its reported pKi. CN(C)S(=O)(=O)n1cc(C(=O)c2ccn3c2CSC3c2ccc[n+]([O-])c2)c2ccc(-c3ccc(F)cc3)cc21 (stereo not shown)
### Response 6.68

### Prompt Cool, now CN(C(=O)n1cc(C(=O)c2ccn3c2CSC3c2cccnc2)c2ccc(OCc3ccccc3)cc21)c1ccccc1 (stereo not shown)
### Response 6.74

### Prompt Cool, now CN(C)C(=O)n1cc(C(=O)c2ccn3c2CSC3c2cccnc2)c2ccc(-c3ccccc3)cc21 (stereo not shown) [Example 12]
### Response 7.64

### Prompt Cool, now O=C(c1ccn2c1CSC2c1cccnc1)c1cn(C(=O)Oc2ccccc2)c2cc(OCc3ccccc3)ccc12 (stereo not shown)
### Response 6.70

----------
Answer each item with its documented log10 Ki.
- Assay Target: PAF receptor (Oryctolagus cuniculus, UniProt G1TEI7)
- Construct: platelet membranes where prepared by centrifugation and washing; tissue Pel-Freez (Rogers, AR) (whole rabbit blood); host or cells: rabbit platelet membranes
- Measurement Notes: PAF receptor binding assay ([3H]C18-PAF, rabbit platelet membranes)
- Experimental Setup: read-out: PAF Receptor Binding Activity K1
A value of 2 here means Ki of 100 in nM, since values are log10.

### Prompt API: value(readout= log10 Ki, system= PAF receptor (Oryctolagus cuniculus, UniProt G1TEI7), query= O=C(c1ccn2c1CSC2c1cccnc1)c1c[nH]c2cc(Cl)ccc12 (stereo not shown) [Example 47] )
### Response 2.77

### Prompt Cool, now CNC(=O)Cn1cc(C(=O)c2ccn3c2CSC3c2cccnc2)c2ccc(-c3ccc(F)cc3)cc21 (stereo not shown) [Example 81]
### Response 0.05

### Prompt Cool, now CS(=O)(=O)n1cc(C(=O)c2ccn3c2CSC3c2cccnc2)c2ccc(-c3ccc(F)cc3)cc21 (stereo not shown) [Example 51]
### Response 2.08

### Prompt Cool, now O=C(c1ccn2c1CSC2c1cccnc1)c1c[nH]c2cc(Br)ccc12 (stereo not shown) [Example 63]
### Response 2.76

### Prompt Cool, now CC(=O)OC[n+]1cccc(C2SCc3c(C(=O)c4cn(C(=O)N(C)C)c5cc(-c6ccc(F)cc6)ccc45)ccn32)c1 (stereo not shown) [Example 92]
### Response 1.28

### Prompt Cool, now CC1(C)SC(c2cccnc2)n2ccc(C(=O)c3c[nH]c4ccccc34)c21 (stereo not shown) [Example 17]
### Response 3.08

### Prompt Cool, now ON=C(c1ccn2c1CSC2c1cccnc1)c1c[nH]c2cc(-c3ccc(F)cc3)ccc12 (stereo not shown) [Example 83]
### Response 1.03
